meta.source: the supplement of paper PMC4862054

- Test system: HCC1937
- experiment.notes: normalised viability (% of control), CellTiter-Blue; higher = more viable cells (100 = DMSO, 0 = benzethonium chloride kill control)
- measurement.setup: incubation time: 72 h
property.label: normalised viability
Record the result as number plus unit.

The cases that follow already have their normalised viability on record.
>>> print(df.to_string())
                                   compound        property_label  reading
0  C[C@]1(O)C[C@@H](c2nc(-c3ccc4ccc(-c5ccccc5)nc4c3)c3c(N)nccn32)C1 [OSI-906] (1 nM)  normalised viability    92.3%
1  Nc1ncn([C@@H]2O[C@H](CO)[C@@H](O)[C@H]2O)c(=O)n1 [Azacitidine] (1 nM)  normalised viability      85%
2  Cc1sc2c(c1C)C(c1ccc(Cl)cc1)=N[C@@H](CC(=O)OC(C)(C)C)c1nnc(C)n1-2 [(+)JQ1] (1 nM)  normalised viability    97.4%

Provide normalised viability value for the following compound: O=NN(CCCl)C(=O)NCCCl [Carmustine] (1 nM)
88.8%
